System: XIP peptide (Xip251-270) binding
assay explanation: XIP fragment 251-270 binding compounds – biochemical, small-molecule microarray, fluorescence 635/667 nm, 0.1 µg/mL protein, primary screen (AID 1182)
assay setup: fluorescent protein binding, 635 nm, higher = more signal, called active from +8 up or from −8 down
For each record, write down the corresponding composite z-score.
Give bare numbers.

Reference set, count: 5
Exercise: Suppose we examine the compound `C=C(C(=O)CC[C@H](OC(C)=O)c1ccccc1OCCO)C(C)C` ; what composite z-score value has been reported?
Key: -0.571

Exercise: Next compound up: `CCOC(=O)C[C@H]1[C@H](OC(=O)c2ccc(C(=O)c3ccccc3)cc2)[C@@H](NC(=O)Cc2ccc(OC)cc2)c2cc(OCCCO)ccc2N1C(=O)c1ccc2ccccc2n1`
Key: 0.845

Exercise: Likewise for O=C1C2C=CC(C(O)C=Cc3ccc([N+](=O)[O-])cc3)N(n3cnnc3)C2C(=O)N1Cc1ccccc1 (stereo not given) ?
Key: 1.01

Exercise: What do you get for `COCCCNC(=O)[C@@H]1c2ccccc2C(=O)N(Cc2ccccc2)[C@H]1c1ccc(CO)cc1` ?
Key: -0.267

Exercise: Also `[N-]=[N+]=Nc1ccccc1[C@H]1OC(c2ccc(OCCCO)cc2)=N[C@@]1(Cc1ccccc1)C(=O)N1CCOCC1` , if possible.
Key: 2.73

Hello, I would appreciate it if you could give composite z-score for each entry below.
1. COc1ccc(CCNC(=O)[C@@]2(C)c3ccccc3C(=O)N(c3ccc(C)cn3)[C@H]2c2ccc(CO)cc2)cc1
2. [N-]=[N+]=NCc1ccccc1[C@@H]1OC(c2ccc(OCCCO)cc2)=N[C@]1(CCS(=O)(=O)c1ccccc1)C(=O)N1CCOCC1
3. C=C(CCCC)/C(=C/C[C@H](OC(C)=O)c1ccccc1OCCO)c1cnc2ccccc2c1
4. C=CCC(OC(C)=O)[C@@H]1[C@@H](N(Cc2cc3ccccc3o2)C(=O)Cc2ccc(OC)cc2)c2cc(OCCCO)ccc2N1C(=O)c1ccc2ccccc2c1 (stereo not given in full)
5. C=C(CCCC)/C(=C/C[C@H](OC(C)=O)c1ccc(OCCO)cc1)c1cnc2ccccc2c1

Key:
[1.66, 1.06, 2.68, 0.0999, 0.578]
